# inhibition values compiled below
ASSAYED TARGET: Cholesteryl ester transfer protein (Oryctolagus cuniculus) (UniProt P22687)
EXPERIMENT DESCRIPTION: Inhibition of CETP in rabbit serum at 10 uM after 1 hr by fluorescent cholesteryl esters transfer assay
Give your result in % as a bare value.

COMPOUND | NUMBER
N=c1[nH]c(=O)n(CCCOc2ccccc2)cc1-c1ccc(Cl)c(Cl)c1 | 0

Q: Provide one value: measured inhibition of OC1=C2Nc3ccc(Cl)cc3N=C2OC1c1c[nH]c2ccc(COc3ccccc3)cc12 (stereo not given)
Ans: 9.1

Q: Write down inhibition measured for item `CC(C)OC(=O)CCC/C=C\C[C@@H]1[C@@H](CC[C@@H](O)CCc2ccccc2)[C@H](O)C[C@@H]1O`
Ans: 11.4

Q: Give the value of inhibition reported for the following: CC(C)(C)c1ccc(C(O)CCCN2CCC(C(O)(c3ccccc3)c3ccccc3)CC2)cc1 (stereo not given)
Ans: 0

Q: Quote inhibition reported for CC(C)[C@H](Nc1ccc(C(F)(F)F)cc1Cl)C(=O)OC(C#N)c1cccc(Oc2ccccc2)c1 (stereo not given in full) please.
Ans: 0

====

ASSAYED TARGET: Cholesteryl ester transfer protein (Oryctolagus cuniculus, UniProt P22687)
Sequence (P22687 whole entry): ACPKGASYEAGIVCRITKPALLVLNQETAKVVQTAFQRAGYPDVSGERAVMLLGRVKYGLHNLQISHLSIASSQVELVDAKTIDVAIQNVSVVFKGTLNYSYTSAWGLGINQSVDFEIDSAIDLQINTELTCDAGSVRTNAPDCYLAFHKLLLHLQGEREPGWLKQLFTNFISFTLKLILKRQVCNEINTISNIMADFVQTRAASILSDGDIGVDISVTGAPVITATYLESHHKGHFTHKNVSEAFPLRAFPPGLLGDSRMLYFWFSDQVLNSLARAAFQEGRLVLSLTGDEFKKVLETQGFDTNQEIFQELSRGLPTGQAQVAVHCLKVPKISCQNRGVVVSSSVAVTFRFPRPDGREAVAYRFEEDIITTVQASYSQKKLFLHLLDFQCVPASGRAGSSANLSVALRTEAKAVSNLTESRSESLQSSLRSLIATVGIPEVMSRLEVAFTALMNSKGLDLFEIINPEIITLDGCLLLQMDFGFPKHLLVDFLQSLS
EXPERIMENT DESCRIPTION: Inhibition of CETP in rabbit serum after 1 hr by fluorescent cholesteryl esters transfer assay
STUDY CONDITIONS: read-out: IC50
MEASUREMENT KIND: pIC50
In plain terms, pIC50 is the concentration in mol/L turned into minus its base-10 logarithm.

Please review the entries below; each comes with its answer.
MOLECULE | MEASUREMENT KIND | NUMBER
Cc1cc(Oc2cccc(N(Cc3cccc(OC(F)(F)C(F)F)c3)CC(O)C(F)(F)F)c2)ccc1F (centres undefined) | pIC50 | 7.10
OC(CN(Cc1cccc(OC(F)(F)C(F)F)c1)c1cccc(Oc2cccnc2)c1)C(F)(F)F (centres undefined) | pIC50 | 5.89
CC(C)(C)c1cccc(Oc2cccc(N(Cc3cccc(OC(F)(F)C(F)F)c3)CC(O)C(F)(F)F)c2)c1 (centres undefined) | pIC50 | 7.10

Q: Annotate the molecule OC(CN(Cc1ccc(-c2ccccc2)cc1)c1cccc(F)c1)C(F)(F)F (centres undefined) with its measured pIC50.
Ans: 4.70

Q: Assign pIC50 to the following record: Cc1ccc(CN(CC(O)C(F)(F)F)c2cccc(F)c2)cc1 (centres undefined)
Ans: 4.19

Q: Tell me measured pIC50 for COc1cccc(Oc2cccc(N(Cc3cccc(OCC(O)C(F)(F)F)c3)CC(O)C(F)(F)F)c2)c1 (centres undefined) please.
Ans: 5.89

Q: Dear colleague, please send me the reported pIC50 for OC(CN(Cc1ccc(OC(F)(F)F)cc1)c1cccc(F)c1)C(F)(F)F (centres undefined) when you can.
Ans: 4.82

Q: Report pIC50, nothing else, for this molecule: OC(CN(Cc1ccc(OC(F)(F)F)cc1)c1cccc(Oc2ccccc2)c1)C(F)(F)F (centres undefined)
Ans: 5.40

Q: Could you please provide reported pIC50 for OC(CN(Cc1cccc(-c2cccnc2)c1)c1cccc(Oc2ccccc2)c1)C(F)(F)F (centres undefined) ? Thanks!
Ans: 4.84

====

ASSAYED TARGET: Cholesteryl ester transfer protein (Oryctolagus cuniculus, UniProt P22687)
EXPERIMENT DESCRIPTION: Inhibition of CETP in rabbit serum after 1 hr by fluorescent cholesteryl esters transfer assay
STUDY CONDITIONS: read-out: IC50
Quick list: IC50 per entry.
Response body: numeric value in µM, unit text excluded.

Take a look at these entries with their results.
MOLECULE | READOUT UNITS | IC50
OC(CN(Cc1cccc(C2CCCC2)c1)c1cccc(Oc2ccccc2)c1)C(F)(F)F (stereo not drawn) | µM | 0.3
O=S(=O)(Nc1ccc(CSc2ccc(Cl)cc2)cc1)c1ccccc1 | µM | 1.9
Cc1ccc(Oc2cccc(N(Cc3cccc(OC(F)(F)C(F)F)c3)C[C@@H](O)C(F)(F)F)c2)cc1 | µM | 0.0081
OC(CN(Cc1cccc(Oc2ccccc2)c1)Cc1cccc(OC(F)(F)F)c1)C(F)(F)F (stereo not drawn) | µM | 30
OC(CN(Cc1cccc(OC(F)(F)F)c1)c1ccc(Oc2ccccc2)cc1)C(F)(F)F (stereo not drawn) | µM | 25
COC(=O)c1cccc(CN(CC(O)C(F)(F)F)c2cccc(Oc3ccccc3)c2)c1 (stereo not drawn) | µM | 16
OC(CN(Cc1ccc(F)c(-c2ccco2)c1)c1cccc(Oc2ccccc2)c1)C(F)(F)F (stereo not drawn) | µM | 0.72
OC(CN(Cc1cccc(C(F)(F)F)c1)c1cccc(C(F)(F)F)c1)C(F)(F)F (stereo not drawn) | µM | 10

Q: Dear colleague, please send me the reported IC50 for Cc1cc(C)cc(Oc2cccc(N(Cc3cccc(OC(F)(F)C(F)F)c3)CC(O)C(F)(F)F)c2)c1 (stereo not drawn) when you can.
Ans: 0.07

Q: Please list IC50 recorded for the molecule Cc1ccc(Oc2cccc(N(Cc3cccc(OC(F)(F)C(F)F)c3)CC(O)C(F)(F)F)c2)cc1 (stereo not drawn)
Ans: 0.1

Q: Give the value of IC50 reported for the following: OC(CN(Cc1cccc(C(F)(F)F)c1)c1cccc(Cl)c1)C(F)(F)F (stereo not drawn)
Ans: 12

Q: Answer with reported IC50 of OC(CN(Cc1cccc(OC(F)(F)C(F)F)c1)c1cccc(Oc2ccc(-c3ccccc3)cc2)c1)C(F)(F)F (stereo not drawn)
Ans: 2.5

Q: Indicate the recorded IC50 value for this molecule: CC(C)(O)c1cccc(CN(CC(O)C(F)(F)F)c2cccc(Oc3ccccc3)c2)c1 (stereo not drawn)
Ans: 7.8
